test description: Single-dose oral pharmacokinetic study of one Phycox soft chew in dogs (serum, LC-MS/MS, non-compartmental analysis)
Type: in vivo, dog (female Beagle)
condition parameters: female, Beagle, dog, serum, po, 450 mg, glucosamine HCl 450 mg in one Phycox soft chew PO, dogs, serum; read-out: apparent t1/2
Where a name gives a salt, the structure may show the parent alone.
test readout: half-life

Looking for the measured half-life of N[C@H]1C(O)O[C@H](CO)[C@@H](O)[C@@H]1O (stereo partly shown) [glucosamine, glucosamine hydrochloride] , can you help?
~35 min

----------
test description: Single-dose oral pharmacokinetic study of one Phycox soft chew in dogs (serum, LC-MS/MS, non-compartmental analysis)
Type: in vivo, dog (female Beagle)
condition parameters: female, Beagle, dog; glucosamine HCl 450 mg in one Phycox soft chew PO, fasted dogs, serum, n = 4, mean ± SEM
Where a name gives a salt, the structure may show the parent alone.
test readout: Cmax (ng/mL)
Quick note: give the figure in ng/mL, leave out the unit.

Recorded Cmax of N[C@H]1C(O)O[C@H](CO)[C@@H](O)[C@@H]1O (stereo partly shown) [glucosamine, glucosamine hydrochloride] , please.
9690

----------
test description: Single-dose oral pharmacokinetic study of one Phycox soft chew in dogs (serum, LC-MS/MS, non-compartmental analysis)
Type: in vivo, dog (female Beagle)
condition parameters: female, Beagle, dog; glucosamine HCl 450 mg in one Phycox soft chew PO, fasted dogs, serum, n = 4, mean ± SEM
Structures can show the parent of a compound that is named as a salt.
test readout: Vd/F
Answer format reminder: number followed by unit.

Which Vd/F value is on record for N[C@H]1C(O)O[C@H](CO)[C@@H](O)[C@@H]1O (stereo partly shown) [glucosamine, glucosamine hydrochloride] ?
2.1 L/kg

----------
test description: Single-dose oral pharmacokinetic study of one Phycox soft chew in dogs (serum, LC-MS/MS, non-compartmental analysis)
Type: in vivo, dog (female Beagle)
condition parameters: female, Beagle, dog; glucosamine HCl 450 mg in one Phycox soft chew PO, fasted dogs, serum, n = 4, mean ± SEM
Structures can show the parent of a compound that is named as a salt.
test readout: AUC(0-inf) (ng·h/mL)
# unit: ng·h/mL | format: bare number

What value of measured AUC(0-inf) is listed for N[C@H]1C(O)O[C@H](CO)[C@@H](O)[C@@H]1O (stereo partly shown) [glucosamine, glucosamine hydrochloride] ?
20400

----------
test description: Single-dose oral pharmacokinetic study of one Phycox soft chew in dogs (serum, LC-MS/MS, non-compartmental analysis)
Assay type: in vivo, dog (female Beagle)
condition parameters: female, Beagle, dog; glucosamine HCl 450 mg in one Phycox soft chew PO, fasted dogs, serum, n = 4, mean ± SEM
Where a name gives a salt, the structure may show the parent alone.
test readout: Tmax (h)
The response must be a number in h with no trailing unit.

I am curious: what Tmax value has been reported for N[C@H]1C(O)O[C@H](CO)[C@@H](O)[C@@H]1O (stereo partly shown) [glucosamine, glucosamine hydrochloride] ?
2
